- Test system: NCI-H522 lung
- ASSAY NOTES: NCI-60 one-dose screen, 48 h
- CONDITION DESCRIPTION: 10 µM unless noted
About 83,000 compounds went through this panel and 20% of them were active in at least one assay; those are over-represented in the sample as a whole. Active and inactive are the calls of the source. Rule for the calls: active = growth percent below 10; inactive = the rest.
Select the correct class. Options are active, inactive and nothing else.

Clc1ccc(C(/C=C/c2sc(Cl)nc2Cl)=N/Nc2cc(Cl)cc(Cl)c2)cc1 ... inactive

*Q* # lookup: test call for COc1ccc(C(=S)N2CCN(c3cccc(C)c3)CC2)cc1OC
*A* inactive

*Q* # lookup: test call for COc1ccc2[nH]c(-c3ccccc3)c(/C=C(\C#N)S(=O)(=O)c3ccccc3)c2c1
*A* inactive
